The entries that follow carry pKi values tested on Adenosine receptor A1 (Homo sapiens), drawn from several published reports.
Numbers only, as −log10 of the molar value.

Previously resolved entries follow.
- O[C@@H]1[C@H](O)[C@@H]2C[C@@H]2[C@H]1n1cnc2c(NC(C3CC3)C3CC3)nc(I)nc21: 6.31
- Cn1cc2c(nc(NCCCCO)n3nc(-c4ccco4)nc23)n1: 5.98
- CCCn1c(=O)n(C)c(=O)c2[nH]c(-c3ccc(OCC(=O)N4CCC(c5ccccc5)(c5ccccc5)CC4)cc3)cc21: 6.17
- N#Cc1cccc(-c2nc(N)c3nc(-c4ccco4)sc3n2)c1: 6.99
- C[C@@H](Oc1ccccc1F)C(=O)Nc1nnc(-c2ccccc2)[nH]1: 5.43
- Nc1nc(OCCc2ccc(F)cc2)nc2c1ncn2[C@@H]1O[C@H](CO)[C@@H](O)[C@H]1O: 6.33
- Nc1nc(C(=O)NCc2ccccc2)c2cccc(F)c2n1: 7.08
- CCc1cc2c(O)ncnc2s1: 4.12

Pending compound:
Prompt: # input compound: Nc1nc(Cc2ccccc2Cl)nc2cn(-c3ccccc3)nc12 ; wanted: its pKi
Response: 6.81

* * *

Here's a roundup of Ki values tested on the protein given by its sequence, taken from various published works.
Target sequence: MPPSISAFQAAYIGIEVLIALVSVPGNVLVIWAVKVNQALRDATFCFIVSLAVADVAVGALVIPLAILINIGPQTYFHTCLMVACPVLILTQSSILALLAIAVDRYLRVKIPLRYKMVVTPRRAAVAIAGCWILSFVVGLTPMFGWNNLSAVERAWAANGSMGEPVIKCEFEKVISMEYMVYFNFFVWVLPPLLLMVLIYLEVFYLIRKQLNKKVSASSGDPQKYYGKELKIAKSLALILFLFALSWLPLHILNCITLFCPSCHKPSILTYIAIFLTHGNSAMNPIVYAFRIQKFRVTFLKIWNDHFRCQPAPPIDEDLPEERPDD
Numbers only, in nM.

Here is how some compounds turned out for Ki.
- O=C(Nc1ccncc1)Nc1nc2nn(CCCO)cc2c2nc(-c3ccco3)nn12: 350
- NCCC(=O)Nc1ccc(-c2cn3c(=O)n(-c4ccccc4)nc3c(N)n2)cc1: 479
- CCCn1c(=O)c2[nH]c(-c3cnn(CC4CC(=O)N(c5ccc(C(F)(F)F)cc5)C4)c3)nc2n(CCC)c1=O (stereo unspecified): 108
- CCCSc1nc(NC(C)=O)cc(OCc2ccc(OC)cc2)n1: 2440
- Cc1ccc(-c2nc(N)c3nn(Cc4cccc(F)c4)cc3n2)o1: 252
- O=c1oc2c(O)cccc2cc1-c1cccs1: 3360
- N#Cc1c(N)nc(SCCO)c(C#N)c1-c1ccc(O)cc1: 23

Below: the item to evaluate.
Prompt: Report Ki for Cn1cc2c(C(N)=O)nc(N)nc2n1 please.
Response: 10200

* * *

Target chain: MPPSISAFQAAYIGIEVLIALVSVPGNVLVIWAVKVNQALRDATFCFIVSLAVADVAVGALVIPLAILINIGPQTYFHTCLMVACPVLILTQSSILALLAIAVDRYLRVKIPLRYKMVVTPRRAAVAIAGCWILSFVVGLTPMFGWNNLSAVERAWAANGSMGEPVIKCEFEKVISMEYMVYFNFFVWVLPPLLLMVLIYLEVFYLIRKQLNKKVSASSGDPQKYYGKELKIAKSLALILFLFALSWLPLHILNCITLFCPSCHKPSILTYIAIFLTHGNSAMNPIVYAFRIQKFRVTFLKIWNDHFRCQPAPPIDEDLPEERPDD
Field log10 Ki: reported value for the protein given by its sequence; entries drawn from several documents.
Short version: log10 scale, Ki, nM.

Worked examples follow.
- CNc1nc(-n2cc(CC3CCCCC3)nn2)nc2c1ncn2[C@@H]1O[C@H](CO)[C@@H](O)[C@H]1O: 3.16
- Nc1nc(OCCc2cc[nH]c2)nc2c1ncn2[C@@H]1O[C@H](CO)[C@@H](O)[C@H]1O: 2.34
- OC[C@@]12C[C@@H]1[C@@H](n1cnc3c(NCc4cccc(I)c4)ncnc31)[C@H](O)[C@@H]2O: 1.54
- Nc1nc2nn(CCc3ccccc3)cc2c2nc(-c3ccccc3)nn12: 1.87
- Cc1cc(F)cc(-c2nc(NC(=O)c3cccnc3)sc2-c2ccncc2)c1: 1.90
- CCCn1c(=O)c2[nH]c([C@]34CC[C@](C(=O)OC)(CC3)CC4)nc2n(CCC)c1=O: 0.95
- Clc1ccc(-c2nc(-c3ccccc3)nc3nc(C4CCCCC4)[nH]c23)cc1: 1.40

Next, consider the following compound.
Prompt: For the compound Nc1nc(C(=O)NCc2ccc3ccccc3n2)c2cccc(F)c2n1 , what log10 Ki is on record?
Response: 1.89
